Where these numbers come from: ChEMBL document CHEMBL4266029

Reported Activity values for the following compounds.
- Tested on: HL-60
- Measurement notes: Cell cycle arrest in human HL60 cells assessed as accumulation at S phase at 1 uM after 18 hrs by propidium iodide staining based flow cytometry (reference value: 27%)
- Format: functional
Expressed in %, but write only the number.

CC(=O)O[C@H]1C(=O)[C@@]2(C)[C@H]([C@H](OC(=O)c3ccccc3)[C@]3(O)C[C@H](OC(=O)[C@H](O)[C@@H](NC(=O)c4ccccc4)c4ccccc4)C(C)=C1C3(C)C)[C@]1(OC(C)=O)CO[C@@H]1C[C@@H]2O [PACLITAXEL]    24
C=C1C[C@@H]2CCCC(=O)C/C(C)=C\C=C\C(=O)O[C@H]([C@H](O)NC(=O)/C=C\C=C\C)C/C(C)=C/[C@H](C1)O2    25
C=C1C[C@@H]2C/C=C/C(=O)C/C(C)=C\C=C\C(=O)O[C@H]([C@H](O)NC(=O)/C=C/C=C\C)C/C(C)=C/[C@H](C1)O2    26
C=C1C[C@@H]2C/C=C/C(=O)C/C(C)=C\C=C\C(=O)O[C@H]([C@H](O)NC(=O)/C=C\C=C\C)C/C(C)=C/[C@H](C1)O2 [ZAMPANOLIDE]    28

Entry under review: C=C1C[C@@H]2C/C=C/C(=O)C/C(C)=C/C=C/C(=O)O[C@H]([C@H](O)NC(=O)/C=C\C=C\C)C/C(C)=C/[C@H](C1)O2 . Reported Activity?
30

Also C=C1C[C@@H]2C/C=C/C(=O)C/C(C)=C\C=C\C(=O)O[C@H](C=O)C/C(C)=C/[C@H](C1)O2 ?
29
